method description: Inhibition of LRRK2 G2019S mutant-induced neuronal toxicity in human cortical neurons
quantity: pEC50
Numbers only, as −log10 of the molar value.

Exercise: Tell me the measured pEC50 of COc1cc(N2CCOCC2)ccc1Nc1ncc(F)c(Nc2ccccc2NS(C)(=O)=O)n1 , please.
Solution: 8.40
